system_name: Cholinesterase (Equus caballus, UniProt P81908)
Sequence (P81908 whole entry): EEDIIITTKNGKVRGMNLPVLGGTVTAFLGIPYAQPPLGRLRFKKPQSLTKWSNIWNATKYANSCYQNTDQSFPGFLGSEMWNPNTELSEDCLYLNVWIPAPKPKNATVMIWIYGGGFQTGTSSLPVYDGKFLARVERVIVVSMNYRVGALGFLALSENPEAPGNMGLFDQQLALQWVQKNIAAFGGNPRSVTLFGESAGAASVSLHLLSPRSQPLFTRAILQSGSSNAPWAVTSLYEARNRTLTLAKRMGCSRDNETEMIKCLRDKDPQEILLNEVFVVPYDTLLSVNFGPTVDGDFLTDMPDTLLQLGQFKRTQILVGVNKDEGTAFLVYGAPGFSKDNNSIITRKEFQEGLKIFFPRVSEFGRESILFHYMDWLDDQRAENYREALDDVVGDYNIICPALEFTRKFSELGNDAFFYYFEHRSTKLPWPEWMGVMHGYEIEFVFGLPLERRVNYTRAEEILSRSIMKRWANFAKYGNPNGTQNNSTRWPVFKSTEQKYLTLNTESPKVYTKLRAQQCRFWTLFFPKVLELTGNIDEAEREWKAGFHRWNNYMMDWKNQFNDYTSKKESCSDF
assay_notes: Competitive inhibition of equine serum BChE using butyrylthiocholine iodide as substrate at 3 uM preincubated for 10 mins followed by substrate addition by Lineweaver-Burk plot analysis
reported_property: pKi
Please express pKi as -log10 of the molar concentration.

query: Please report the measured pKi for S=C(N/N=C/c1ccccc1)Nc1c2c(nc3ccccc13)CCCC2
result: 5.85

----------
system_name: Acetylcholinesterase (Electrophorus electricus, UniProt O42275)
Sequence (O42275 whole entry): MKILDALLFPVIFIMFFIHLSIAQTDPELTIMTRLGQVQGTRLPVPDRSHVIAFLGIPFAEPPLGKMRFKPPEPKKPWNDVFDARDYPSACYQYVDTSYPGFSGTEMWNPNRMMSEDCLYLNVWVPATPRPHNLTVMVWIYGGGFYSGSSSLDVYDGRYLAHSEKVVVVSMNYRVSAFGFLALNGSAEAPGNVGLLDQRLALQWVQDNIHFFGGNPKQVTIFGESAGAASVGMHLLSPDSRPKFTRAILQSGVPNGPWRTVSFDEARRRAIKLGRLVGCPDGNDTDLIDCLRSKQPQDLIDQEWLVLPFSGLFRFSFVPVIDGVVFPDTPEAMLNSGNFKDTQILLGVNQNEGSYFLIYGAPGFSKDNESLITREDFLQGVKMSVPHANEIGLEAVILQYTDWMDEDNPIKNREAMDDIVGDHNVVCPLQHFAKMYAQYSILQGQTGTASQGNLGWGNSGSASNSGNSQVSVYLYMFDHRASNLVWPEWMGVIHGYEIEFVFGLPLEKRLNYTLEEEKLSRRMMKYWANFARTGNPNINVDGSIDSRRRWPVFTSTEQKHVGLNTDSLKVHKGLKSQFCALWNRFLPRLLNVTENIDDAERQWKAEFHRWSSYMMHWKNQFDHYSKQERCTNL
assay_notes: Non-competitive inhibition of electric eel AChE using acetylthiocholine iodide as substrate preincubated for 10 mins followed by substrate addition by Lineweaver-Burk plot analysis
Measured pKi by item
The scale used: pKi is minus the common logarithm of the concentration in molar units.

Example results:
| smiles_notation | reported_property | reported_value |
| --- | --- | --- |
| S=C(N/N=C/c1ccccc1)Nc1c2c(nc3ccccc13)CCCC2 | pKi | 5.01 |
| S=C(N/N=C/c1ccccc1)Nc1c2ccccc2nc2ccccc12 | pKi | 5.87 |

Okay, now this compound:
query: Quote pKi with test system Acetylcholinesterase (Electrophorus electricus, UniProt O42275) for O=[N+]([O-])c1ccc(/C=N/NC(=S)Nc2c3ccccc3nc3ccccc23)cc1
result: 5.53
